biological target: Sodium channel protein type 2 subunit alpha (Homo sapiens); assay: Inhibition of inactivated human Nav1.2 sodium channel
Assay Endpoint: IC50 (µM)
Answers are plain numbers, in µM.

Specify measured IC50 for `COc1cc(NC(=O)c2ccc(-c3ccc(Cl)cc3)o2)cc(OC)c1` .
7.18

* * *

biological target: Sodium channel protein type 10 subunit alpha (Homo sapiens); assay: Binding affinity to Nav1.8 sodium channel
Sequence (Q9Y5Y9 whole entry): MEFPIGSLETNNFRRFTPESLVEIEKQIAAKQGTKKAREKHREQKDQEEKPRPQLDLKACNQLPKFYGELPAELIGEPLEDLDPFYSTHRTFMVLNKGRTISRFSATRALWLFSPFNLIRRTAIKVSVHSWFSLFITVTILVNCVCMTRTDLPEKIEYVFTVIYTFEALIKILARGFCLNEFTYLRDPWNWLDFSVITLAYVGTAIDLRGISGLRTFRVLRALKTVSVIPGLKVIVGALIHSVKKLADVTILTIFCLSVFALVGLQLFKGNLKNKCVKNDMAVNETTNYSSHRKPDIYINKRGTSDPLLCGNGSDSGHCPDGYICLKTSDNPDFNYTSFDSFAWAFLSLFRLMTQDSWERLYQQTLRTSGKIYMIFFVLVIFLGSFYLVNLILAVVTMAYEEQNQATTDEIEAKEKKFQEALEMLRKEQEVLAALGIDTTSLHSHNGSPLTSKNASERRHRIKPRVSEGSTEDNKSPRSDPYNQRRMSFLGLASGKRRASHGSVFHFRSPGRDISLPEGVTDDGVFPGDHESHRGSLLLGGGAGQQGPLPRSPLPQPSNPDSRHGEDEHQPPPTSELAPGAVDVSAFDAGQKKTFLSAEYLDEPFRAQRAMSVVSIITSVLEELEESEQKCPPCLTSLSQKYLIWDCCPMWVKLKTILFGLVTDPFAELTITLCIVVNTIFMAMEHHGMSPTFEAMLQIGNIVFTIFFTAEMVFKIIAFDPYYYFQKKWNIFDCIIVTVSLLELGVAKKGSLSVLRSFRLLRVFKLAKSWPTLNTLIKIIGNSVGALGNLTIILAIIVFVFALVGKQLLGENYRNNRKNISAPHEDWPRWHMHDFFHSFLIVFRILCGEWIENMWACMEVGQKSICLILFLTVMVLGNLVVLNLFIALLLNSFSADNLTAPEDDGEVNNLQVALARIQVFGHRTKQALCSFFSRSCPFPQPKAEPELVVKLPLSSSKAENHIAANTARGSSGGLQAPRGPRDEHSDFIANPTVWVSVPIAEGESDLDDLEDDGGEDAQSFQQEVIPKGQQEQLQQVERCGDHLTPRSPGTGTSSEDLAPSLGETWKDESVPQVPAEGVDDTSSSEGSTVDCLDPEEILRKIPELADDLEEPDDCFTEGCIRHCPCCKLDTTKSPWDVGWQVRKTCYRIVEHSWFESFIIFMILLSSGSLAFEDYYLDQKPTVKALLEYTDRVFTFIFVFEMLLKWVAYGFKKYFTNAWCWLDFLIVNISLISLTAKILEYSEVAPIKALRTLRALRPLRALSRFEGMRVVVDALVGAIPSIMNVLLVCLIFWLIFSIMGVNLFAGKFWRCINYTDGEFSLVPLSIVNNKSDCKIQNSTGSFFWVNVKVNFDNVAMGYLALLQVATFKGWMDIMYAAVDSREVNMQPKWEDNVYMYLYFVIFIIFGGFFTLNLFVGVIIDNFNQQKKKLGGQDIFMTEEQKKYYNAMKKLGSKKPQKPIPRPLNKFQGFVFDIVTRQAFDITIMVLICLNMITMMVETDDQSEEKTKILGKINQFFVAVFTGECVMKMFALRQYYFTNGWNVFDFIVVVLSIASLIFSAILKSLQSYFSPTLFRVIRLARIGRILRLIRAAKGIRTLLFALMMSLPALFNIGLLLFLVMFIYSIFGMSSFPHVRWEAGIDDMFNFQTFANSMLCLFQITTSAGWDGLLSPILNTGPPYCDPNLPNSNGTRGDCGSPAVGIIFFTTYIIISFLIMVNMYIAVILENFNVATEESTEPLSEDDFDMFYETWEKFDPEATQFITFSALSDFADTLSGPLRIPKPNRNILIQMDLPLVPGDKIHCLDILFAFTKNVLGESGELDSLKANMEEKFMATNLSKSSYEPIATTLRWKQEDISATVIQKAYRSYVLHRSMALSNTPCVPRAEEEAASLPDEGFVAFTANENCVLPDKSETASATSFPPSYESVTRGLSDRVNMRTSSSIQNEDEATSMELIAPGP
Assay Endpoint: pKi
One number for each entry, as −log10 of the molar value.

Supply reported pKi belonging to this molecule: `CN(Cc1ccc(-c2ccccc2S(N)(=O)=O)cc1)C(=O)[C@@H]1CCC[C@H]1C(=O)NCc1ccc(OC(F)(F)F)cc1`
6.74

* * *

target: Sodium channel protein type 9 subunit alpha (Homo sapiens, UniProt Q15858); test: Binding affinity to Nav1.7 sodium channel
Sequence (Q15858 whole entry): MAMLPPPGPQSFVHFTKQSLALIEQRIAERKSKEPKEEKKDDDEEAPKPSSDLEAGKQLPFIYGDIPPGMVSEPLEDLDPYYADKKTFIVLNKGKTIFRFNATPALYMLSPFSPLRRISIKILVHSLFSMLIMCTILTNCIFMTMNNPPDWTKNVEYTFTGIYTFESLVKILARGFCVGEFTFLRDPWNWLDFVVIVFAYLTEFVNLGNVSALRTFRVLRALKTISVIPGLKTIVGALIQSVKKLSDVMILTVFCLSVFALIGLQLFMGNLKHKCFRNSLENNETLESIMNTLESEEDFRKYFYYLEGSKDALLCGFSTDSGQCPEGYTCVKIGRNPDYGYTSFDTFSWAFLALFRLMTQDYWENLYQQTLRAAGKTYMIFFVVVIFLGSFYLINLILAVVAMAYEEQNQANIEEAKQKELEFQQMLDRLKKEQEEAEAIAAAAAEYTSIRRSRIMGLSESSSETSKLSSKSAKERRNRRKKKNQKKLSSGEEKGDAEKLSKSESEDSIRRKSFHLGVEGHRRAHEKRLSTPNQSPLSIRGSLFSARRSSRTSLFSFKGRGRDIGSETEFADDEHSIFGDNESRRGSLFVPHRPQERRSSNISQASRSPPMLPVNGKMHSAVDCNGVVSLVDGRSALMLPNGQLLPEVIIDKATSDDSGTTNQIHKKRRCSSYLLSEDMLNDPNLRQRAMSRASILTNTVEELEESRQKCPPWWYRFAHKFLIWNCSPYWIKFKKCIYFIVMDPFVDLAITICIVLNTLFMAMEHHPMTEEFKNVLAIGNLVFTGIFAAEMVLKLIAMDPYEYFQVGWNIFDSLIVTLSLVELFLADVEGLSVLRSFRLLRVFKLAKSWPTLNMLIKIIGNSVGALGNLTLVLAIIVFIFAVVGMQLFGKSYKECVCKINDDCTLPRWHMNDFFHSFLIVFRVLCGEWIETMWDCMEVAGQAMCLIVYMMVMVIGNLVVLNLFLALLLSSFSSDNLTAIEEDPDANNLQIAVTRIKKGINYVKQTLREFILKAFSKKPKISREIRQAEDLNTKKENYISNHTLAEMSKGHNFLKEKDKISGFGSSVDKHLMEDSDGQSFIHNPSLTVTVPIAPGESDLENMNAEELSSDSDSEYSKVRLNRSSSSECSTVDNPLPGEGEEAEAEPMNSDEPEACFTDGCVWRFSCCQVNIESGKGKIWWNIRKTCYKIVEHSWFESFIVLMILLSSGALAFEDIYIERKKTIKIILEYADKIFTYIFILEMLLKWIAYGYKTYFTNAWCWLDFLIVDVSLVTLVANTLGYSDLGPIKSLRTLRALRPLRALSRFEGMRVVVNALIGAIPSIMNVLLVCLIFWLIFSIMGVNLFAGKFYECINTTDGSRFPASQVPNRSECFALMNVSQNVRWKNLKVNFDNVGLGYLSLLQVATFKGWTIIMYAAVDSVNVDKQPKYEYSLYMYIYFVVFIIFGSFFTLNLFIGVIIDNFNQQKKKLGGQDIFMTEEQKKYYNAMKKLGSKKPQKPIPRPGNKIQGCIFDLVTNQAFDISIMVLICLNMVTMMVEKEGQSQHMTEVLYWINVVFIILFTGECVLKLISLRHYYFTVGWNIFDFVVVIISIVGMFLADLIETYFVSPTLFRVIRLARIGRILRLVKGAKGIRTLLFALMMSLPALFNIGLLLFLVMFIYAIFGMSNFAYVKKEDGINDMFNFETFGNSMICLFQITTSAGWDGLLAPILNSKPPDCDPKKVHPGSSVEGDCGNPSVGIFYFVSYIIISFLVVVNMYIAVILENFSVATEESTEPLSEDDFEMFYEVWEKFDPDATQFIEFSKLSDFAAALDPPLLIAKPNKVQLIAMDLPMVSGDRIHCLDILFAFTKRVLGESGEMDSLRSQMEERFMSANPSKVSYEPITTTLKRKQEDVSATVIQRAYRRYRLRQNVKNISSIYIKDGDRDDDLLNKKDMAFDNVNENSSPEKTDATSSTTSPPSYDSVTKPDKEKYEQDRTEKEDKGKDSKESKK
Assay Endpoint: pKi
One number for each entry, as −log10 of the molar value.

Retrieve pKi measured for `CN(Cc1ccc(-c2ccccc2S(N)(=O)=O)cc1)C(=O)[C@@H]1CCC[C@H]1C(=O)NCc1ccc(OC(F)(F)F)cc1` and print it.
6.60

Origin of values: ChEMBL document CHEMBL1141460
